- system-tested: T1, recombinant purified FRα (ECL assay calibrator) (human, UniProt P15328 25-234)
- T1 construct: Calibrator of the ECL sandwich assays; also called FRα calibrator; FRα standard
- T1 sequence (P15328 25-234 limits assumed): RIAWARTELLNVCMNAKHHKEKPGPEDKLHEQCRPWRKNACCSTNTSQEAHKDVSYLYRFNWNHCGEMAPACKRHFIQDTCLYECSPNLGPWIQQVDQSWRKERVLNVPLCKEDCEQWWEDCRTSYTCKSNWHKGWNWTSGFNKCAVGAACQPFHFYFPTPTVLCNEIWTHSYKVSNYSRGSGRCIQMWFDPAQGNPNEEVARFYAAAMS
- test-summary: ECL sandwich, FRα calibrator; capture 19D4.B7; binder = detection Ab
For each entry below, report its Specific signal at 500 pg/mL value.

• Monoclonal antibody 19D4.B7 (antibody, mouse IgG2a, V domains shown, SULFO-TAG conjugated when used as detection antibody in the ECL assay; also called ATCC PTA-11884) VH: GARELVKPGASVKLSCTASGFNIKHPYMHWVKQRPDQGLEWIGRIDPANGNTKYDPKFQGKATITADTSSNTAYLQLSSLTSEDTAVYYCGREEVADYTMDYWGQGTSVTVSS VL: PASLAVSLGQRATISCRASESVDTYGNNFIHWYQQKPGQPPKLLIYLASNLESGVPARFSGSGSRTDFTLTIDPVEADDAATYYCQQNNGDPWTFGGGTKLEIKR = 87

I would be grateful if you could share the reported Specific signal at 500 pg/mL for Monoclonal antibody 24H8.F3 (antibody, mouse IgG1, V domains shown, Murine IgG1 kappa from hybridoma; also called ATCC PTA-123097) VH: GPGLVAPSQSLSITCTVSGFSLTSYGVSWVRQPPGKGLEWLGVIWGDGSTNYHSTLISRLSISKDNSKSQVFLKLNSLQTDDTATYYCAKPHPAATGAMDYWGQGTSVTVSS VL: TTSSLSASLGDRVTISCRASQDISNHLNWYQQKPDGTIKLLIYYTSKLHSGVPSRFSGSGSGTDYSLTISNLEQEDIATYFCQQGNTLWTFGGGTKLEIK . 33600
